assay: in vitro; conditions: male, Sprague-Dawley, rat, liver microsomes
property.label: half-life at 1 h (min)

Here are 2 compounds together with their reported answers.
CCOc1ccc(S(=O)(=O)N2CCc3ccc(C(NC(=O)c4cccc5c4c4ccccc4n5C)C(=O)O)cc3C2)cc1C#N (stereo unspecified) = 280
CCOc1ccc(S(=O)(=O)N2CCc3ccc(C(NC(=O)c4cccc5c4-c4ccccc4C5=O)C(=O)O)cc3C2)cc1C#N (stereo unspecified) = 99

a. N#Cc1cccc(S(=O)(=O)N2CCc3ccc(C(NC(=O)c4cccc5c4-c4ccccc4C5=O)C(=O)O)cc3C2)c1 (stereo unspecified)
b. Cn1c2ccccc2c2c(C(=O)NC(C(=O)O)c3ccc4c(c3)CN(S(=O)(=O)c3ccc(F)c(C#N)c3)CC4)cccc21 (stereo unspecified)
c. N#Cc1cc(S(=O)(=O)N2CCc3ccc(C(NC(=O)c4cccc5c4-c4ccccc4C5=O)C(=O)O)cc3C2)ccc1F (stereo unspecified)
d. Cn1c2ccccc2c2c(C(=O)NC(C(=O)O)c3ccc4c(c3)CN(S(=O)(=O)c3cccc(C#N)c3)CC4)cccc21 (stereo unspecified)
Q: Provide the items ranked by increasing half-life at 1 h. State the ranking by listing the labels in the requested order.
A: c, a, b, d
(c: 78 min, a: 130 min, b: 240 min, d: 400 min)

----------
assay: in vitro; settings: male, CD-1, mouse, liver microsomes
property.label: half-life at 1 h (min)

Some compounds with known half-life at 1 h results, for comparison:
O=C(NC(C(=O)O)c1ccc2c(c1)CN(S(=O)(=O)c1cccc(Br)c1)CC2)c1cccc2c1-c1ccccc1C2=O (centres undefined) = 3.3
CCOc1ccc(S(=O)(=O)N2CCc3ccc(C(NC(=O)c4cccc5c4c4ccccc4n5C)C(=O)O)cc3C2)cc1C#N (centres undefined) = 8
CCOc1ccc(S(=O)(=O)N2CCc3ccc(C(NC(=O)c4cccc5c4-c4ccccc4C5)C(=O)O)cc3C2)cc1C#N (centres undefined) = 4.7
N#Cc1cccc(S(=O)(=O)N2CCc3ccc(C(NC(=O)c4cccc5c4-c4ccccc4C5=O)C(=O)O)cc3C2)c1 (centres undefined) = 6.1
Cn1c2ccccc2c2c(C(=O)NC(C(=O)O)c3ccc4c(c3)CN(S(=O)(=O)c3cccc(C#N)c3)CC4)cccc21 (centres undefined) = 15
COc1ccc(S(=O)(=O)N2CCc3ccc(C(NC(=O)c4cccc5c4-c4ccccc4C5=O)C(=O)O)cc3C2)cc1 (centres undefined) = 3.8

1. CCOc1ccc(S(=O)(=O)N2CCc3ccc(C(NC(=O)c4cccc5c4-c4cccnc4C5=O)C(=O)O)cc3C2)cc1C#N (centres undefined)
2. CCOc1ccc(S(=O)(=O)N2CCc3ccc(C(NC(=O)c4cccc5c4-c4ccccc4C5F)C(=O)O)cc3C2)cc1C#N (centres undefined)
3. COc1ccc(S(=O)(=O)N2CCc3ccc(C(NC(=O)c4cccc5c4-c4ccccc4C5=O)C(=O)O)cc3C2)cc1C#N (centres undefined)
Q: Given 3 compounds, produce a descending ranking by half-life at 1 h. Reply: labels, ordered per the request.
A: 1, 2, 3

----------
assay: Metabolic stability in human liver microsomes assessed as parent compound remaining measured after 30 mins in presence of NADPH regenerating system by LC-MS analysis; format: ADME, Microsome; conditions: read-out: Stability
property.label: remaining at 0.5 h (%)

Cn1c2ccccc2c2c(C(=O)NC(C(=O)O)c3ccc4c(c3)CN(S(=O)(=O)c3ccc(F)c(C#N)c3)CC4)cccc21 (stereo unspecified) = 64
Cn1c2ccccc2c2c(C(=O)NC(C(=O)O)c3ccc4c(c3)CN(S(=O)(=O)c3cccc(C#N)c3)CC4)cccc21 (stereo unspecified) = 89
CCOc1ccc(S(=O)(=O)N2CCc3ccc(C(NC(=O)c4cccc5c4c4ccccc4n5C)C(=O)O)cc3C2)cc1C#N (stereo unspecified) = 66

----------
assay: Metabolic stability in male CD-1 mouse liver microsomes assessed as parent compound remaining measured after 30 mins in presence of NADPH regenerating system by LC-MS analysis; assay type: ADME, Microsome; settings: read-out: Stability
property.label: remaining at 0.5 h (%)

CCOc1ccc(S(=O)(=O)N2CCc3ccc(C(NC(=O)c4cccc5c4-c4cccnc4C5=O)C(=O)O)cc3C2)cc1C#N (configuration not stated) = 39
CCOc1ccc(S(=O)(=O)N2CCc3ccc(C(NC(=O)c4cccc5c4-c4ccccc4C5F)C(=O)O)cc3C2)cc1C#N (configuration not stated) = 19
N#Cc1cccc(S(=O)(=O)N2CCc3ccc(C(NC(=O)c4cccc5c4-c4ccccc4C5=O)C(=O)O)cc3C2)c1 (configuration not stated) = 7.5

I. CCOc1ccc(S(=O)(=O)N2CCc3ccc(C(NC(=O)c4cccc5c4c4ccccc4n5C)C(=O)O)cc3C2)cc1C#N (configuration not stated)
II. Cn1c2ccccc2c2c(C(=O)NC(C(=O)O)c3ccc4c(c3)CN(S(=O)(=O)c3ccc(F)c(C#N)c3)CC4)cccc21 (configuration not stated)
III. COc1ccc(S(=O)(=O)N2CCc3ccc(C(NC(=O)c4cccc5c4-c4ccccc4C5=O)C(=O)O)cc3C2)cc1C#N (configuration not stated)
Q: Rank order required: remaining at 0.5 h, descending. Reply with the item labels sorted in the order that was asked for.
A: II, I, III
(II: 16%, I: 8%, III: 3.5%)

----------
test: Metabolic stability in male Sprague-Dawley rat liver microsomes assessed as parent compound remaining measured after 30 mins in presence of NADPH regenerating system by LC-MS analysis; format: ADME, Microsome; settings: read-out: Stability
property.label: remaining at 0.5 h (%)

CCOc1ccc(S(=O)(=O)N2CCc3ccc(C(NC(=O)c4cccc5c4c4ccccc4n5C)C(=O)O)cc3C2)cc1C#N (stereo unspecified) = 86
Cn1c2ccccc2c2c(C(=O)NC(C(=O)O)c3ccc4c(c3)CN(S(=O)(=O)c3cccc(C#N)c3)CC4)cccc21 (stereo unspecified) = 92
CCOc1ccc(S(=O)(=O)N2CCc3ccc(C(NC(=O)c4cccc5c4-c4ccccc4C5=O)C(=O)O)cc3C2)cc1C#N (stereo unspecified) = 78
Cn1c2ccccc2c2c(C(=O)NC(C(=O)O)c3ccc4c(c3)CN(S(=O)(=O)c3ccc(F)c(C#N)c3)CC4)cccc21 (stereo unspecified) = 86
N#Cc1cc(S(=O)(=O)N2CCc3ccc(C(NC(=O)c4cccc5c4-c4ccccc4C5=O)C(=O)O)cc3C2)ccc1F (stereo unspecified) = 77
N#Cc1cccc(S(=O)(=O)N2CCc3ccc(C(NC(=O)c4cccc5c4-c4ccccc4C5=O)C(=O)O)cc3C2)c1 (stereo unspecified) = 83

----------
test: Permeability of the compound in PBS buffer at pH 7.4 at 200 uM measured after 5 hrs by PAMPA assay; format: ADME; settings: PAMPA, pH 7.4, read-out: permeability
property.label: Papp at 5 h, 200 µM (×10⁻⁶ cm/s)

CCOc1ccc(S(=O)(=O)N2CCc3ccc(C(NC(=O)c4cccc5c4c4ccccc4n5C)C(=O)O)cc3C2)cc1C#N (stereo not drawn) = 4.7

A. Cn1c2ccccc2c2c(C(=O)NC(C(=O)O)c3ccc4c(c3)CN(S(=O)(=O)c3ccc(F)c(C#N)c3)CC4)cccc21 (stereo not drawn)
B. Cn1c2ccccc2c2c(C(=O)NC(C(=O)O)c3ccc4c(c3)CN(S(=O)(=O)c3cccc(C#N)c3)CC4)cccc21 (stereo not drawn)
Q: Select one. Lower Papp at 5 h, 200 µM: A or B Write down the label of the entry you select.
A: B

----------
test: Metabolic stability in male CD-1 mouse liver microsomes assessed as parent compound remaining measured after 30 mins in presence of NADPH regenerating system by LC-MS analysis; type: ADME, Microsome; conditions: read-out: Stability
property.label: remaining at 0.5 h (%)

CCOc1ccc(S(=O)(=O)N2CCc3ccc(C(NC(=O)c4cccc5c4-c4ccccc4C5=O)C(=O)O)cc3C2)cc1C#N (configuration not stated) = 3

P. Cn1c2ccccc2c2c(C(=O)NC(C(=O)O)c3ccc4c(c3)CN(S(=O)(=O)c3cccc(C#N)c3)CC4)cccc21 (configuration not stated)
Q. O=C(NC(C(=O)O)c1ccc2c(c1)CN(S(=O)(=O)c1cccc(Br)c1)CC2)c1cccc2c1-c1ccccc1C2=O (configuration not stated)
Q: Short answer wanted: higher remaining at 0.5 h, P or Q ? Write down the label of the entry you select.
A: P
(P: 22%, Q: 0%)

----------
assay: Metabolic stability in human liver microsomes assessed as half life measured after 1 hr in presence of NADPH regenerating system by LC-MS analysis; assay type: ADME, Microsome
property.label: half-life (min)

Reference set (3 entries):
N#Cc1cc(S(=O)(=O)N2CCc3ccc(C(NC(=O)c4cccc5c4-c4ccccc4C5=O)C(=O)O)cc3C2)ccc1F (stereo unspecified) = 4.5
N#Cc1cccc(S(=O)(=O)N2CCc3ccc(C(NC(=O)c4cccc5c4-c4ccccc4C5=O)C(=O)O)cc3C2)c1 (stereo unspecified) = 6.1
Cn1c2ccccc2c2c(C(=O)NC(C(=O)O)c3ccc4c(c3)CN(S(=O)(=O)c3ccc(F)c(C#N)c3)CC4)cccc21 (stereo unspecified) = 51

a. CCOc1ccc(S(=O)(=O)N2CCc3ccc(C(NC(=O)c4cccc5c4c4ccccc4n5C)C(=O)O)cc3C2)cc1C#N (stereo unspecified)
b. CCOc1ccc(S(=O)(=O)N2CCc3ccc(C(NC(=O)c4cccc5c4-c4ccccc4C5=O)C(=O)O)cc3C2)cc1C#N (stereo unspecified)
c. Cn1c2ccccc2c2c(C(=O)NC(C(=O)O)c3ccc4c(c3)CN(S(=O)(=O)c3cccc(C#N)c3)CC4)cccc21 (stereo unspecified)
Q: Could you please order the items by half-life, going from the lowest number to the highest? List each label, following the requested order.
A: b, a, c
